Cited source for all entries: ChEMBL document CHEMBL4041520

Tested on: NIH3T3
assay_details: Antiproliferative activity against mouse NIH/3T3 cells after 72 hrs by MTT assay
Assay type: cell-based
conditions_used: NIH3T3, 72 h
pIC50: −log10 of the molar value.
experimental_endpoint: pIC50

>  <line_notation>
O=c1c(Br)cn(Cc2cn(-c3cc(Cl)cc(Cl)c3)nn2)c(=O)n1Cc1cn(-c2cc(Cl)cc(Cl)c2)nn1

>  <target_entity>
NIH3T3

>  <numeric_readout>
5.37

$$$$
>  <line_notation>
O=c1[nH]c(=O)n(Cc2cn(-c3cc(Cl)cc(Cl)c3)nn2)cc1Br

>  <target_entity>
NIH3T3

>  <numeric_readout>
5.94

$$$$
>  <line_notation>
O=c1c(Br)cn(Cc2cn(-c3ccccc3F)nn2)c(=O)n1Cc1cn(-c2ccccc2F)nn1

>  <target_entity>
NIH3T3

>  <numeric_readout>
6.23

$$$$
>  <line_notation>
O=c1c(Br)cn(Cc2cn(-c3ccc(F)cc3)nn2)c(=O)n1Cc1cn(-c2ccc(F)cc2)nn1

>  <target_entity>
NIH3T3

>  <numeric_readout>
7.15

$$$$
>  <line_notation>
O=c1c(Br)cn(Cc2cn(-c3ccc(Cl)cc3)nn2)c(=O)n1Cc1cn(-c2ccc(Cl)cc2)nn1

>  <target_entity>
NIH3T3

>  <numeric_readout>
6.43

$$$$
